Provenance of the data: PubChem BioAssay (NCATS)

Test system: CP256
PROTOCOL_DETAILS: qHTS profiling for inhibitors of Plasmodium falciparum proliferation (AID 504749); further: nearly all actives have a fitted effect of over 60% in size; further: potency means the concentration at half of the fitted maximal effect
CONDITION_INFO: P. falciparum in erythrocytes, SYBR Green DNA, 72 h; series mostly up to 28.7 µM
Records with an inconclusive call do not appear. Active and inactive are the calls of the source. The call rests on the fitted dose curve; in most records, active means well fitted inhibition curve with a large enough effect; inconclusive means small, poorly fitted or top-dose-only effect; inactive means flat fitted curve, though single readings scatter.
VALUE_KIND: Potency

INSERT INTO results (molecule, reported_measurement) VALUES
  ('COc1cc(NCCCC(C)N)c2ncccc2c1 (stereo not drawn)', '4.47 µM (active)'),
  ('O=C1N=C2SCCN2C(=O)C1Cc1ccc(Cl)cc1 (stereo not drawn)', 'inactive'),
  ('CC1=C(/C=C/C(C)=C/C=C/C(C)=C/C(=O)Oc2c(C)c(C)c3c(c2C)CC[C@@](C)(CCC[C@H](C)CCC[C@H](C)CCCC(C)C)O3)C(C)(C)CCC1', 'inactive');
